target: human GCG receptor (human, UniProt P47871 26-477); test: cell-based or functional assay
Sequence (P47871 26-477): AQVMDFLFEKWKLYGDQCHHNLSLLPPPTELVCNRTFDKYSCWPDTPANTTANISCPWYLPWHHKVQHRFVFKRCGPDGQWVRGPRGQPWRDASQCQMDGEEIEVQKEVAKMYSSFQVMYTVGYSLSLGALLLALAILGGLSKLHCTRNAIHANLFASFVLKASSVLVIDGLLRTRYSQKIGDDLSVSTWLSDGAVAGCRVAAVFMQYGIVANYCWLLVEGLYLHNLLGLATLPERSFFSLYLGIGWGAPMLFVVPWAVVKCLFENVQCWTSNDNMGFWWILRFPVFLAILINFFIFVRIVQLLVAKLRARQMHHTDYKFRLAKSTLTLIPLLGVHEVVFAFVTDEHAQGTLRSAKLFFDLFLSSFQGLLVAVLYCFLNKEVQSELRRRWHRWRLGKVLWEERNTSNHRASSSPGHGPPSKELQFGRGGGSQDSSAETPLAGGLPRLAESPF
Bridges are numbered along the chain shown (N, C = ends). Where no end group is shown, it is not given here. [ ]: non-standard residue; d: D form. The star is where a group is joined. Acetyl(2-(4-imidazolyl)) = O=C(Cc1c[nH]cn1)*; Aib = CC(C)(N)C(=O)O
# maps each entry to its In vitro activity relative to native peptide (%) vs. Glucagon
State the answer as a number, implicitly in %.

Name the recorded In vitro activity relative to native peptide (%) vs. Glucagon of the binder listed here: Y[Aib]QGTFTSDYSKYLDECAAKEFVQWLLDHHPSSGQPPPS (bridge 16-20) [triple agonist of SEQ ID NO: 64] 60.1

Name the recorded In vitro activity relative to native peptide (%) vs. Glucagon of the binder listed here: [Acetyl(2-(4-imidazolyl))][Aib]QGTFTSDKSSYLDERAAQDFVQWLLDGGPSSGAPPPSS (not fully specified) [triple agonist of SEQ ID NO: 38] 1

Name the recorded In vitro activity relative to native peptide (%) vs. Glucagon of the binder listed here: H[Aib]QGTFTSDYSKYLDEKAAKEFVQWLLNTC (bridge 16-20) [triple agonist of SEQ ID NO: 29] 6

# credit: patent US20230302148A1
